System: Danio rerio Tg(wt1b:EGFP) embryo, pronephros
PROTOCOL_SUMMARY: pronephric angle neck segment to proximal convoluted tubule (mean of left and right), fold change vs DMSO control; higher = larger pronephric angle
EXPERIMENTAL_CONDITIONS: 25 µM; exposure: 24-48 hpf
Where a name gives a salt, the structure may show the parent alone.
OBSERVATION_TYPE: pronephric angle neck segment
# output: bare number, no unit

>  <COMPOUND>
O=P1(N(CCCl)CCCl)NCCCO1 (stereo not given) [Cyclophosphamide]

>  <OBSERVED_RESULT>
1.09

$$$$

Ask: Form field: reported pronephric angle neck segment of CCN(C(C)=O)c1cccc(-c2ccnc3c(C#N)cnn23)c1 [Zaleplon]
Reply: 1.03

Ask: Form field: reported pronephric angle neck segment of C[C@@H]1C[C@@H]([C@H](O)CC2CC(=O)NC(=O)C2)C(=O)[C@@H](C)C1 [Cycloheximide]
Reply: 1.73

Ask: Form field: reported pronephric angle neck segment of CC[N+]1(C)CCCC(OC(=O)C(O)(c2ccccc2)c2ccccc2)C1 (stereo not given) [Pipenzolate bromide]
Reply: 0.981

Ask: Form field: reported pronephric angle neck segment of CC(C)CC(N(C)C)C1(c2ccc(Cl)cc2)CCC1 (stereo not given) [Sibutramine hydrochloride]
Reply: 1.08

Ask: Form field: reported pronephric angle neck segment of C[C@]12CC[C@@H](O)C[C@@H]1CC[C@@H]1[C@@H]2CC[C@]2(C)C(=O)CC[C@@H]12 [Androsterone]
Reply: 0.999
